Origin of the recorded values: PubChem BioAssay AID493036

Provide the recorded cell count for the entries that follow.
- Assay Comment: NTR1-driven beta-arrestin-GFP spot formation – imaging, U2OS cells, high content, primary screen (AID 493036)
- Test Context: agonist mode, measured here: cell count, cytotoxicity flag, at 20 µM
Out of some 330,000 compounds screened, about 560 (0.17%) were called active. The entries come from a sample that favours actives as a whole.
Give bare numbers, in cells.

The following compounds have reported results that may help.
compound=CN(C)S(=O)(=O)N1CCN(c2ccc([N+](=O)[O-])cc2)CC1 readout="cell count" unit_string=cells reported_measurement=47
compound=CCOc1ccc(N(CC(=O)Nc2ccccc2F)S(=O)(=O)c2c(C)[nH]c(=O)[nH]c2=O)cc1 readout="cell count" unit_string=cells reported_measurement=61
compound=CCOC(=O)/C(=C\c1ccc([N+](=O)[O-])cc1)C(=O)c1cc(C(C)=O)c(Nc2ccccc2)s1 readout="cell count" unit_string=cells reported_measurement=50

Quick batch: cell count for everything below.
1. CC1=C(C(N)=O)C(c2ccc(Br)cc2)n2ncnc2N1 (configuration not stated)
2. O=C(O)c1cccc(N=NN2CCCCCC2)c1
3. O=[N+]([O-])/C=C/c1ccc2c(ccn2Cc2ccccc2)c1
4. Cc1ccc2c(c1)C(O)(CC(=O)c1cccc(-n3cccc3)c1)C(=O)N2 (configuration not stated)
5. Fc1ccccc1/C=C1\CCCC2=C1Nc1ncnn1C2c1ccccc1F (configuration not stated)
6. CCOC(=O)CN1CC23C=CC(O2)C(C(=O)Nc2ccc(F)cc2)C3C1=O (configuration not stated)
7. Cc1cccc(NC(=O)C2CCCN(C(=O)NCc3ccccc3)C2)c1C (configuration not stated)
8. O=C(Nc1cc(Cl)ccc1N1CCOCC1)c1ccc(N2CCCC2=O)cc1

82
47
87
57
72
46
37
53

Please give cell count for each item listed below.
1. CCOC(=O)/C(=N\Nc1ccccc1[N+](=O)[O-])c1csc(Nc2ccccc2)n1
2. Cc1ccccc1C(=O)N1CCC(C(=O)Oc2ccc(C#N)cc2)CC1
3. Cc1nnc(-c2ccc(Oc3ccc(C)c(C)c3)c([N+](=O)[O-])c2)o1
4. CCOC(=O)c1cnc2c(c(C)nn2CC)c1Cl

59
77
52
47

* * *

Please go through the items and note down their cell count.
- Assay Comment: NTR1-driven beta-arrestin-GFP spot formation – imaging, U2OS cells, high content, primary screen (AID 493036)
- Test Context: agonist mode, measured here: cell count, cytotoxicity flag, at 20 µM
Screen size: about 330,000 compounds; about 560 (0.17%) were called active. Many of the other results were omitted from the sample, so actives are more common in it than they were.
Numbers only, in cells.

Look over these answered cases.
molecule="CCCCCCCC(=O)NC(Nc1ccccc1OC)C(Cl)(Cl)Cl (stereo not drawn)" unit_string=cells reported_measurement=50
molecule=Cc1nn(C)c(Oc2ccccc2)c1CCNS(=O)(=O)c1ccc(F)cc1 unit_string=cells reported_measurement=76

Switching to the query record.
Lab note: CC(C)c1ccc(OCC(O)Cn2cnc3ccccc32)cc1 (stereo not drawn) gave cell count of 46

* * *

Exercise: for every item that follows, state its recorded cell count.
- Assay Comment: NTR1-driven beta-arrestin-GFP spot formation – imaging, U2OS cells, high content, primary screen (AID 493036)
- Test Context: agonist mode, measured here: cell count, cytotoxicity flag, at 20 µM
The whole screen tested about 330,000 compounds, of which about 560 (0.17%) were called active. Many of the other results were omitted from the sample, so actives are more common in it than they were.
Numbers only, in cells.

Known results for compounds:
chemical_structure=CCOc1ccccc1NC(=O)Cn1nnc(C(=O)NCc2cccs2)c1N reported_measurement=61
chemical_structure=Cc1c(NC(=O)CCC2CCCCC2)cc(C(=O)N2CCOCC2)cc1[N+](=O)[O-] reported_measurement=61

Could you now look at the following compound, please?
Entry `O=C(/C(=C/c1cccc(Cl)c1)c1nc2ccccc2[nH]1)c1ccccc1` ; cell count = 59

* * *

- Assay Comment: NTR1-driven beta-arrestin-GFP spot formation – imaging, U2OS cells, high content, primary screen (AID 493036)
- Test Context: agonist mode, measured here: cell count, cytotoxicity flag, at 20 µM
Out of some 330,000 compounds screened, about 560 (0.17%) were called active. Only a selection was taken, and actives are over-represented in it overall.
Readout: cell count (cells)
Numbers only, in cells.

chemical_structure=CNC[C@H](CC1CCCCC1)NC[C@H](NCCC1CCCC1)[C@H](C)O readout="cell count" reported_measurement=59
chemical_structure=CC(C)(CNC(=O)Cc1ccc(Cl)cc1Cl)N1CCOCC1 readout="cell count" reported_measurement=59

Below: the item to evaluate.
Documented cell count of `CC(C)Oc1c(Br)cc(Br)cc1/C=N/NC(N)=S` : 60

* * *

- Assay Comment: NTR1-driven beta-arrestin-GFP spot formation – imaging, U2OS cells, high content, primary screen (AID 493036)
- Test Context: agonist mode, measured here: cell count, cytotoxicity flag, at 20 µM
In all, about 330,000 compounds went through this assay and about 560 (0.17%) were called active. The sample as a whole holds a higher share of actives than the screen did.
For each record, write down the corresponding cell count.
Answers are plain numbers, in cells.

I'm hoping you can list cell count for every compound here, please.
1. Nc1c(-c2ccc(F)cc2)cnc2ncnn12
2. Cc1cc(Cl)ccc1OCc1nc(-c2ccncc2)no1
3. CCOc1ccc(CN2CCN(Cc3c[nH]c4ccccc34)CC2)cc1
4. O=C1CN(C(=O)c2ccccc2F)C(c2ccc(F)cc2)c2cc(F)ccc2N1 (configuration not stated)
5. Cn1c(-c2ccc(C(=O)c3ccccc3)s2)nc2ccccc21
6. [O-][n+]1onc2c1CCc1[nH]c(-c3ccccc3)nc1-2
7. CCOC(=O)/C(C#N)=C/c1ccc(OCC(=O)Nc2ccccc2)c(OC)c1

1: 91; 2: 20; 3: 62; 4: 89; 5: 111; 6: 66; 7: 80
